Data credit: paper PMC9962964

# test.description: Ex vivo biodistribution in PC-3 tumor-bearing mice
# Set-up: species or system NRG mice
# condition.details: mouse, fat, intravenous, 100 ug, 1 h blocked: co-injected with 100 µg of [D-Phe6,Leu-NHEt13,des-Met14]Bombesin(6-14), n = 4; read-out: Fat uptake
observable: tissue uptake at 1 h (%ID/g)

CC(C)C[C@H](NC(=O)[C@H](Cc1c[nH]cn1)NC(=O)CNC(=O)[C@@H](NC(=O)[C@H](C)NC(=O)[C@H](Cc1c[nH]c2ccccc12)NC(=O)[C@H](CCC(N)=O)NC(=O)[C@@H](Cc1ccccc1)NC(=O)CN1CCC(NC(=O)CN2CCN(CC(=O)O)CCN(CC(=O)O)CCN(CC(=O)O)CC2)CC1)C(C)C)C(=O)N1CSC[C@H]1C(N)=O [[^68Ga]Ga-TacBOMB2, metal not drawn] :: 0.07

----------
# test.description: Ex vivo biodistribution in PC-3 tumor-bearing mice
# Design: species or system NRG mice
# condition.details: mouse, fat, intravenous, 1 h post-injection, n = 4; read-out: Fat uptake
observable: tissue uptake at 1 h (%ID/g)

CC(C)C[C@H](NC(=O)[C@H](Cc1c[nH]cn1)NC(=O)CNC(=O)[C@@H](NC(=O)[C@H](C)NC(=O)[C@H](Cc1c[nH]c2ccccc12)NC(=O)[C@H](CCC(N)=O)NC(=O)[C@@H](Cc1ccc2ccccc2c1)NC(=O)CN1CCC(NC(=O)CN2CCN(CC(=O)O)CCN(CC(=O)O)CCN(CC(=O)O)CC2)CC1)C(C)C)C(=O)N1CSC[C@H]1C(N)=O [[^68Ga]Ga-TacBOMB3, metal not drawn] :: 0.19
CC(C)C[C@H](NC(=O)[C@H](Cc1c[nH]cn1)NC(=O)CNC(=O)[C@@H](NC(=O)[C@H](C)NC(=O)[C@H](Cc1c[nH]c2ccccc12)NC(=O)[C@H](CCC(N)=O)NC(=O)[C@@H](Cc1ccccc1)NC(=O)CN1CCC(NC(=O)CN2CCN(CC(=O)O)CCN(CC(=O)O)CCN(CC(=O)O)CC2)CC1)C(C)C)C(=O)N1CSC[C@H]1C(N)=O [[^68Ga]Ga-TacBOMB2, metal not drawn] :: 0.1

----------
# test.description: Ex vivo biodistribution in PC-3 tumor-bearing mice
# Design: species or system NRG mice
# condition.details: mouse, heart, intravenous, 1 h post-injection, n = 4; read-out: Heart uptake
# tissue uptake at 1 h per record follows
observable: tissue uptake at 1 h (%ID/g)

CC(C)C[C@H](NC(=O)[C@H](Cc1c[nH]cn1)NC(=O)CNC(=O)[C@@H](NC(=O)[C@H](C)NC(=O)[C@H](Cc1c[nH]c2ccccc12)NC(=O)[C@H](CCC(N)=O)NC(=O)[C@@H](Cc1ccc2ccccc2c1)NC(=O)CN1CCC(NC(=O)CN2CCN(CC(=O)O)CCN(CC(=O)O)CCN(CC(=O)O)CC2)CC1)C(C)C)C(=O)N1CSC[C@H]1C(N)=O [[^68Ga]Ga-TacBOMB3, metal not drawn] :: 0.35
CC(C)C[C@H](NC(=O)[C@H](Cc1c[nH]cn1)NC(=O)CNC(=O)[C@@H](NC(=O)[C@H](C)NC(=O)[C@H](Cc1c[nH]c2ccccc12)NC(=O)[C@H](CCC(N)=O)NC(=O)[C@@H](Cc1ccccc1)NC(=O)CN1CCC(NC(=O)CN2CCN(CC(=O)O)CCN(CC(=O)O)CCN(CC(=O)O)CC2)CC1)C(C)C)C(=O)N1CSC[C@H]1C(N)=O [[^68Ga]Ga-TacBOMB2, metal not drawn] :: 0.14

----------
# test.description: Ex vivo biodistribution in PC-3 tumor-bearing mice
# Design: species or system NRG mice
# condition.details: mouse, bone, intravenous, 1 h post-injection, n = 4; read-out: Bone uptake
observable: tissue uptake at 1 h (%ID/g)

CC(C)C[C@H](NC(=O)[C@H](Cc1c[nH]cn1)NC(=O)CNC(=O)[C@@H](NC(=O)[C@H](C)NC(=O)[C@H](Cc1c[nH]c2ccccc12)NC(=O)[C@H](CCC(N)=O)NC(=O)[C@@H](Cc1ccccc1)NC(=O)CN1CCC(NC(=O)CN2CCN(CC(=O)O)CCN(CC(=O)O)CCN(CC(=O)O)CC2)CC1)C(C)C)C(=O)N1CSC[C@H]1C(N)=O [[^68Ga]Ga-TacBOMB2, metal not drawn] :: 0.26

----------
# tissue uptake at 1 h per record follows
# test.description: Ex vivo biodistribution in PC-3 tumor-bearing mice
# Parameters: species or system NRG mice
# condition.details: mouse, brain, muscle, fat, bone, liver, stomach, heart, and spleen, intravenous, 1 h post-injection; read-out: Uptake values for the brain, muscle, fat, bone, liver, stomach, heart, and spleen
# Experimental: For biodistribution studies, the mice were injected with the radiotracer (2–4 MBq) via the tail vein as described above. For blocking, the mice were co-injected with 100 μg of [D-Phe^6,Leu-NHEt^13,des-Met^14]Bombesin(6–14). […] Blood was collected through a cardiac puncture, and organs/tissues of interest were collected, weighed, and counted using a Perkin Elmer (Waltham, MA, USA) Wizard2 2480 automatic gamma counter.
observable: tissue uptake at 1 h

CC(C)C[C@H](NC(=O)[C@H](Cc1c[nH]cn1)NC(=O)CNC(=O)[C@@H](NC(=O)[C@H](C)NC(=O)[C@H](Cc1c[nH]c2ccccc12)NC(=O)[C@H](CCC(N)=O)NC(=O)[C@@H](Cc1ccccc1)NC(=O)CN1CCC(NC(=O)CN2CCN(CC(=O)O)CCN(CC(=O)O)CCN(CC(=O)O)CC2)CC1)C(C)C)C(=O)N1CSC[C@H]1C(N)=O [[^68Ga]Ga-TacBOMB2, metal not drawn] :: < 1 %ID/g
CC(C)C[C@H](NC(=O)[C@H](Cc1c[nH]cn1)NC(=O)CNC(=O)[C@@H](NC(=O)[C@H](C)NC(=O)[C@H](Cc1c[nH]c2ccccc12)NC(=O)[C@H](CCC(N)=O)NC(=O)[C@@H](Cc1ccc2ccccc2c1)NC(=O)CN1CCC(NC(=O)CN2CCN(CC(=O)O)CCN(CC(=O)O)CCN(CC(=O)O)CC2)CC1)C(C)C)C(=O)N1CSC[C@H]1C(N)=O [[^68Ga]Ga-TacBOMB3, metal not drawn] :: < 1 %ID/g
